# Protocol details: yeast display, Sf9 membrane polyspecificity reagent, FACS + sequencing; frameworks hold sequencing errors
Outcome measure: polyreactivity (PSR sort gate)

Recorded results for 5 sequences are shown here.
{"columns": ["Chain sequence", "polyreactivity (PSR sort gate)"],
 "data": [
  ["QVQLVESGGGLVQAGGSLRLSCAASGRTFWWNAMGWYRQAPGKERELVASISSGGSTNYADSVKGRFTISRDNAKKTVYLQMNSLKPEDTAVYYCARGYRWRGTVSRWSRYYQAHDYWGQGTQVTVSS", "low polyreactivity"],
  ["QVQLVESGGGLVQAGGSLRLSCAASGFTFIRNAMGWYRQAPGKERELVAVITRSGGSTYYADSVKGRFTISRDNAKNTVYLQMNSLKPQDTAVYYCAATLRYSPRRRYDYWGQGTQVTVSS", "high polyreactivity"],
  ["QDQLVESGGGLVQAGGSLRLSCAAYGSTFPVYTMGWYRQAPRKEREFVAAITGSGGRTYYADSVKGRFTISRDNAKNTVFLQMNSLKPEDTAVYYCNAYPKGRYAAAFPGMDYWGQGTQVTVSS", "high polyreactivity"],
  ["QVQLVESGGGLVQAGGSLRLSCDASGSTFSYYAMGWYRQAPGKERDLVAAISSSGVRTYYADSVKGRFTISRDNAKNTVYLQMNSQKPEDTAVYYCAAGSRRGWLYRNRLWADYDYWGQGTQVTVSS", "high polyreactivity"],
  ["QVQHVESRGGLVQAGGSLRLRCAASGRIFSHYAMGWYRQAPGKERELVAAITSDGSTNYADSVKGRFTISRDNAKNTVYLQMNSLKPEDTAVYYCAKYVHIPYYYYLFGSYDYWGQGSQVTVSS", "low polyreactivity"]
]}

The record that follows has no polyreactivity (PSR sort gate) shown yet.
INPUT: Tell me the measured polyreactivity (PSR sort gate) of QVQLVESGGGLVQAGGSLRLSCAASGSTFGINAMGWYRQAHGKERELVARISSGVRTYYADSVKGRFTISRDNAKNTVYLQMNSLKPEDTAVYYCAAVYYRGVDRAILSYRYYYWGQGTQVTVSS , please.
OUTPUT: high polyreactivity

====

# Protocol details: yeast display, Sf9 membrane polyspecificity reagent, FACS + sequencing; frameworks hold sequencing errors
Outcome measure: polyreactivity (PSR sort gate)

Recorded results for 4 sequences are shown here.
{"columns": ["Chain sequence", "Outcome measure", "Test result"],
 "data": [
  ["QVQLVESGGGLVQAGGSLRLSCAASGRTFTYNAMGWYRQAPGKDRELVARISFSGSSTYYADSVKGRFTISRDNAKNTVYLQMNSLKPEDTAVYYCATEAPYYIGGRYRYQRYDYWGQGTQVTVSS", "polyreactivity (PSR sort gate)", "high polyreactivity"],
  ["QVQLVESGGGLVQSGGSLRLSCAASGSIYAYYAMGWYRQAPGKERELVAAIRFNSGRTYYADSVKGRFTISRDNAKNTVYLQMKSLKPEDTAVYYCAARDGYVYSHRYDYWGQGTQVTVSS", "polyreactivity (PSR sort gate)", "high polyreactivity"],
  ["QVQLVESGGGLVQAGGSLRLSCAASGSTFFEYTMGWYRRAPGKEREFVADIRGRDGSTSYADSVKGRFTISRDNAKNTVYLQMNSLKPEDTAVYYCATEYFPQYQSTGWYDYWGQGTQVTVSS", "polyreactivity (PSR sort gate)", "low polyreactivity"],
  ["QVQLVESGGGLVQAGGSLRLSCAASGRIFTYNTMGWYRQAPGKERELVAAISGSGGITYYADSVKGRFTISRDNAKNTVYLQMNSLKPEDTAVYYCNTVPLYVSRYPYDYWGQGTQVTVSS", "polyreactivity (PSR sort gate)", "low polyreactivity"]
]}

The record that follows has no polyreactivity (PSR sort gate) shown yet.
INPUT: Tell me the measured polyreactivity (PSR sort gate) of QVQLVESGGGLVQAGGSLRLSCAASGFTFYRYAMGWYRQAPGKERELVARISWSGGSTYYADSVKGRFTISRDNAKNTVYLQMNSLKPEDTAVYYCNARRLFESWKYDYWGQGTQVTVSS , please.
OUTPUT: high polyreactivity

====

# Protocol details: yeast display, Sf9 membrane polyspecificity reagent, FACS + sequencing; frameworks hold sequencing errors
Outcome measure: polyreactivity (PSR sort gate)

{"columns": ["Chain sequence", "Test result"],
 "data": [
  ["QVQLVESGGGLGQAGGSLRLSCAASGSTFTRYGMGWSRQAPGKERELVAAITTSGSSTYYADSVKGRFTISRDNAKNTVYLQMNSLKPEDTAVYYCAADWSSWGFDYWGQGTQVTVSS", "low polyreactivity"],
  ["QVQLQESGGGLVQAGGSLRLSCAASGTISVHASMGWYRQAPGKERELVAGITDGANTYYADSVKGRFTISRDNSKNTVYMQKNSLKPEDTAVYYCAAYYGTEVHFTYWGQGTQVTVSS", "low polyreactivity"],
  ["QVQLVESWGGLVQAGGSLRLSCAASGSTITAKAMGWYRQAPGKERELVAAITKSGGDTYYADSVKGRFTISRDNAKNTVYLQMNSLKPEDTAVYYCAARIRPYAYRSLYGYWGQGTQVTVSS", "low polyreactivity"]
]}

====

# Protocol details: yeast display, Sf9 membrane polyspecificity reagent, FACS + sequencing; frameworks hold sequencing errors
Outcome measure: polyreactivity (PSR sort gate)

Recorded results for 10 sequences are shown here.
{"columns": ["Chain sequence", "Test result"],
 "data": [
  ["QVQLVESGGGLVQAGGSLRLSCAASGSIFARYAMGWYRQAPGKERELVATITRGGSTNYADSVKGRFTISRDNAKNTVYLQMNSLKPDDTAVYYCARTSYGRLDYWGQGPQVTVSS", "low polyreactivity"],
  ["QVQLVESGGGLVQAGGSLRLSCAASGSIFWYNTMGWYRPAPGKERELVAAISKSGTSTYYADSVKGRFTISRDNAKNTVYLQMNSLKPEDTAVYYCAAALPGYGDYYYWGQGTQVTVSS", "high polyreactivity"],
  ["QVQLVESGGGLVQAGGSLRLSCAASGFIFRRNAMGWYRQAPGKEREFVAAITWSGGSTYYADSVKGRFTISRDNAKDTVYLQMNSLKPEDTAVYYCAATYSQYWYTKYLNSYPGYDYWGQGTQVTVSS", "low polyreactivity"],
  ["QVQLVESGGGLVQAGGSLRLSCAASGSIFTVNAMGWYRQARGKERELVAAISSGGSTHYADSVKGRFTISRDNAKNTVYLQMNSLKPEDTAVYYCARDRPGDYAGYDYWGQGTQVTVSS", "low polyreactivity"],
  ["QVQLVESGGGLVHAGGSLRLSCAASGSTEYNAMGWYRQSPGTQRELVAVITDSDGSTYYADSVKGRYTISRDNAKHTVYLQMNSLKREDTAVYYCAADDYAYSYGYWLTYDYWGQGPQVTVSS", "low polyreactivity"],
  ["QVQLVESGGGLVQAGGSLRLSCAASGFTFRRYAKGWYRQATGKEREFVAAISIRGGRTNYADSVKGRFTISRDNAKNTVYLQMNSLKPEDTAVYYCAADGVYALDVESDYWGQGTQVTVSS", "high polyreactivity"],
  ["QVQLVESGGGLVQAGGSLRLSCAASGSIFYLYTMGWYRQAPGKERELVASITYSGGTYYADSVKGRFTISRDNAKNTVYLQINSLKPEDTAVYYCNADASYYLDDEYDYWGQGTQVTVSS", "low polyreactivity"],
  ["QVQLVESGGGLVQAGGSLRLSCAASGFISGKYAMGWYRQAPGKERELVASIRSGGSTNYADSVKGRFTISRDNAKNTVYLQMNSLKPEDTAVYYCAKLRGSRGVIYDYWGQGTQVTVSS", "high polyreactivity"],
  ["QVQLVESGGGLVQAGGSLRLSCAASGIIFQYYAMGGYRQAPGKERELVAAISWSGGSTYYADSVKGRFTISRDNAKNTVYLQMNSLKPEDTAVYYCAARSRSFWPYEGDYWGQGTQVTVSS", "low polyreactivity"],
  ["QVQLVESGGGLVQAGGSLRLSCAASGSSFGGYARGWYRQAPGKERELVAAISNGDRTNYADSVKGRFTISRDNAKNTVYLQLNSQKPEYTAVYDCATQPLTWSSYRWDWRAQFDHWGQGTQVTVSS", "low polyreactivity"]
]}

The record that follows has no polyreactivity (PSR sort gate) shown yet.
INPUT: Tell me the measured polyreactivity (PSR sort gate) of QVQLVESGGGLDQAGGSLRLSCAASGSIFYRNAIGWYRQAPGKDREFVAAITLRGGSTYYADSVKGRFTISRDNAKNTVYLQMNSLKPEDTAVYYCAADLLLYSSQDNDYWGQGTQVTVSS , please.
OUTPUT: low polyreactivity

====

# Protocol details: yeast display, Sf9 membrane polyspecificity reagent, FACS + sequencing; frameworks hold sequencing errors
Outcome measure: polyreactivity (PSR sort gate)

{"columns": ["Chain sequence", "Test result"],
 "data": [
  ["QVQLVESGGGLVQAGGSLRLSCAASGSTFFIYAMGWYRQAPGKERELVAAISGSGGTTYYADSVKGRFTISRDNAKNTVYLQMNSLKPEDTAVYYCNKDYYPGSYDYWGQGTQVTVSS", "low polyreactivity"],
  ["QVQLVESGGGLVQAGGSLRLSCAASGLTFHPYAMGWYRQAPGKERELVAAISSRGTSTYYADSVKGRFTISRDNAKNTVYLQMNSLKPEDTAVYYCAARYRLYYYFRFDWGQGTQVTVSS", "high polyreactivity"],
  ["QDQLVESGGGLVQAGGSLRLSCAAYGYTFDDNAMGWFRQAPGKERELVAAINWDGASTYADSVKGRFTISRDNAKNTVYLQMNSLKPEDTAVYYCTASGKDIFNYVYQGYDYCGQGTQVTVSS", "low polyreactivity"],
  ["QVQLVESGGGLVQAGGSLRLSCAASGCTIWSSAMGWYRQAPGKERELVASITWSGGSTYADSVKGRFTISRDNAKNTVYLQMNSLKPEDTAVYYCARESTLTYYSDDFDYWGQGTQVTVSS", "low polyreactivity"]
]}

INPUT: Tell me the measured polyreactivity (PSR sort gate) of QVQLVESGGGLVQAGGSLRLSCAASGRIFARNAMGWYRQAPGKERELVAAITYSGGSTYYADSVKGRFTISRDNAKNTVYLQMNSLKPEDTAVYYCAAETSNRGRRYYYWGQGTQVTVSS , please.
OUTPUT: high polyreactivity

INPUT: Same for QVQLVESGGGLVQAGGSHRLSCAASGIISPFYAMGWYRQAPGKERELVADISTGGTTTYADSVKGRFTISRDNAKNTVYLQMNSLKPEDTAVYYCNAEVSLTYYWIVWASYDYWGQGTQVTVSS
OUTPUT: low polyreactivity

INPUT: Same for QVQLVESGGGLVQAGGSLRLSCAASGRTFPSYAMGWYRQAPGKERELVAAITRGGSTNYADSVKGRFTISRDNAKNTVYLQMNSLKPEDTAVYYCAAARWRWQLARDDYWGQGTQVTVSS
OUTPUT: high polyreactivity

INPUT: Same for QVQLVDSGGGLVQAGGSLRLSCAASGFTFTRYAMGWYRQAPGKERELVADITRGGSTNYADSVKARFTISRDNAKNTVYLQMNSLKPEDTAVYYCNAGAITNYDYCGQGTQVTVSS
OUTPUT: high polyreactivity

INPUT: Same for QVQLVESVGGLVQAGGSLRLSCAASGITFFGNAMGWYRQAPGKERELVASISNGDNTNYADSVKGRFTISRDNAKNTVYLQMNSLKPEDTAVYYCAAWLAYSSRYGYWGQGTQVSVSS
OUTPUT: low polyreactivity

INPUT: Same for QVQLVESGGGLVQAGGSLRLSCDDSGGIFGFYSMGWYRQAPGKERELVAAISGDGGSTYYADSVKGRFTISRDNATNTVYLQMNSLKPEDTAVYYCTAAFFTEYYQGDYWGQGTQVTVSS
OUTPUT: low polyreactivity

INPUT: Same for QVQHVESGRGLVQAGGSLRLSCAASGSIQGGNARGCSSQAPGKESELVAAITFSGGGTYYADSVKGRLTISRDNAKNTVYLQMNSVKPEDTAVYYCAADIDGYTYEFDYWGQGTQVTVYS
OUTPUT: low polyreactivity
